# Tested on: KM12
# EXPERIMENT SUMMARY: panel of 60 human tumor cell lines, growth inhibition (Colon Cancer)
# DETAILS: KM12; Log10 Concentration −7.0
Percent Growth overview
Report only the number, with the unit % understood.

- MOLECULE: "C=C1C(=O)O[C@H]2[C@H]1CC/C(COC(=O)NCCN1CCCCC1)=C\\CC[C@@]1(C)O[C@@H]21 [JVM 2-13]"
  Percent Growth [%]: 106
- MOLECULE: "C=C1C(=O)O[C@H]2[C@H]1CC/C(COC(=O)NCCN1CCOCC1)=C\\CC[C@@]1(C)O[C@@H]21 [JVM 57]"
  Percent Growth [%]: 106

Query: Recorded Percent Growth of C=C1C(=O)O[C@H]2[C@H]1CC/C(COC(=O)NCCN1CCCC1)=C\CC[C@@]1(C)O[C@@H]21 [JVM 59] , please.
Result: 95

Query: Recorded Percent Growth of C=C1C(=O)O[C@H]2[C@H]1CC/C(COC(=O)N1CCN(C)CC1)=C\CC[C@@]1(C)O[C@@H]21 [JVM 2-44] , please.
Result: 99

Query: Recorded Percent Growth of C=C1C(=O)O[C@H]2[C@H]1CC/C(COC(=O)N1CCC(F)(F)CC1)=C\CC[C@@]1(C)O[C@@H]21 [JVM 2-66] , please.
Result: 97

Query: Recorded Percent Growth of C=C1C(=O)O[C@H]2[C@H]1CC/C(COC(=O)NCCc1ccccn1)=C\CC[C@@]1(C)O[C@@H]21 [JVM 61] , please.
Result: 107

----------
This document collects CC50 values reported for NCI-H226.
Report only the number, with the unit µM understood.

Known results for compounds:
- SUBSTANCE SMILES: "C=C1C(=O)O[C@H]2[C@H]1CC/C(COC(=O)CCC(=O)N1CCC(C)CC1)=C\\CC[C@@]1(C)O[C@@H]21"
  CC50 [µM]: 76.1
- SUBSTANCE SMILES: "C=C1C(=O)O[C@H]2[C@H]1CC/C(COC(=O)N1CCC(F)(F)CC1)=C\\CC[C@@]1(C)O[C@@H]21"
  CC50 [µM]: 10.9

Could you now consider this next compound?
Query: Under NCI-H226: CC50 value of C=C1C(=O)O[C@H]2[C@H]1CC/C(COC(=O)NC)=C\CC[C@@]1(C)O[C@@H]21 ?
Result: 96.1

----------
# Test system: NCI/ADR-RES
# EXPERIMENT SUMMARY: panel of 60 human tumor cell lines, growth inhibition (Ovarian Cancer)
# DETAILS: Homo sapiens
QUANTITY KIND: GI50 (µM)
Report only the number, with the unit µM understood.

Known results for compounds:
- SUBSTANCE SMILES: "C=C1C(=O)O[C@H]2[C@H]1CC/C(COC(=O)CCC(=O)NCc1ccc(Cl)nc1)=C\\CC[C@@]1(C)O[C@@H]21"
  RESULT UNIT: "µM"
  RECORDED RESULT: 31.1
- SUBSTANCE SMILES: "C=C1C(=O)O[C@H]2[C@H]1CC/C(COC(=O)OCCCN1CCCCC1)=C\\CC[C@@]1(C)O[C@@H]21"
  RESULT UNIT: "µM"
  RECORDED RESULT: 17.2
- SUBSTANCE SMILES: "C=C1C(=O)O[C@H]2[C@H]1CC/C(COC(=O)NCCc1ccccn1)=C\\CC[C@@]1(C)O[C@@H]21"
  RESULT UNIT: "µM"
  RECORDED RESULT: 20.1

Query: Under NCI/ADR-RES: GI50 value of C=C1C(=O)O[C@H]2[C@H]1CC/C(COC(=O)NCCN1CCOCC1)=C\CC[C@@]1(C)O[C@@H]21 ?
Result: 52.3
